experiment: Half life in male Sprague-Dawley rat at 2 mg/kg, iv measured upto 30 hrs by LC-MS/MS analysis; format: ADME, organism-based; conditions: in vivo
List of half-life values.
Only the number, expressed in h, is required.

Compound: NC(=O)/C(=C/n1cnc(-c2cc(C(F)(F)F)cc(C(F)(F)F)c2)n1)c1cncnc1 [ELTANEXOR]
Unit info: h
half-life: 3

--- query ---
What the record says about CONC(=O)/C(=C/n1cnc(-c2cc(C(F)(F)F)cc(C(F)(F)F)c2)n1)c1cncnc1 : half-life is 4.2

----------
experiment: AUC (0 to infinity) in male Sprague-Dawley rat at 10 mg/kg, po measured upto 30 hrs by LC-MS/MS analysis; type: ADME, organism-based; conditions: in vivo
Readout name: AUC(0-inf)
Record the result as number plus unit.

Compound: CONC(=O)/C(=C/n1cnc(-c2cc(C(F)(F)F)cc(C(F)(F)F)c2)n1)c1cncnc1
Readout name: AUC(0-inf)
Observed measurement: 4180 ng·h/mL

--- query ---
What the record says about NC(=O)/C(=C/n1cnc(-c2cc(C(F)(F)F)cc(C(F)(F)F)c2)n1)c1cncnc1 [ELTANEXOR] : AUC(0-inf) is 2590 ng·h/mL
